biological target: human Gcp-2 (human, UniProt P80162 38-114, limits assumed); test: ELISA, supernatant

# binder, binding result
measured = [
    ("monoclonal antibody 6I5 (antibody, mouse IgG1, V domains shown, mouse IgG1; also called 6I5.1; 615) VH: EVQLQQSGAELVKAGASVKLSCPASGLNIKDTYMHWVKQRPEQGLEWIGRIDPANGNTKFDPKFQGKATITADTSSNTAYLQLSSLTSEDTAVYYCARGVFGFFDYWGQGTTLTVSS VL: DIQMTQSSSSFSVSLGDRVTITCKATEDIYNRLAWYQQKPGSAPRLLISGATSLETGVPSRFSGSGSGKDYTLSITSLQTEDVATYYCQQFWSAPYTFGGGTKLEIK", "no binding"),
    ("monoclonal antibody 6D21 (antibody, mouse IgG1, V domains shown, mouse IgG1; also called 6D21.1) VH: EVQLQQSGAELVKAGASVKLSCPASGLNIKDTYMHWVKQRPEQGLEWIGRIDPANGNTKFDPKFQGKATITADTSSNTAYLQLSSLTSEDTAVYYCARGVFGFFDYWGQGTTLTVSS VL: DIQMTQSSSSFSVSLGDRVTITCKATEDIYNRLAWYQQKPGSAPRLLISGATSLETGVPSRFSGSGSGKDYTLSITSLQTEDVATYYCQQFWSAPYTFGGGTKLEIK", "no binding"),
    ("mouse monoclonal antibody 11K2 (antibody, V domains shown, mouse IgG1; also called 11K2.1; mu11K2) VH: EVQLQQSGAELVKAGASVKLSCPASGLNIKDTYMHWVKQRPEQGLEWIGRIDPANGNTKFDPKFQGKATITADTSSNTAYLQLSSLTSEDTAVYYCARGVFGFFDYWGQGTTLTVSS VL: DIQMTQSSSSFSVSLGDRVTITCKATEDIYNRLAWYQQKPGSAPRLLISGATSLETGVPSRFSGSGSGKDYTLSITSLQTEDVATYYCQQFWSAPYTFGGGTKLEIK", "no binding"),
]

All figures here come from patent US20070134236A1.
